outcome.measure: melting point

• CN(C(=O)c1ccc2nonc2c1)C1CCC(=O)CC1 = 183 to 184 °C
• CN(C(=O)c1ccc2nonc2c1)C1CCC(F)(F)CC1 = 137 to 138 °C
• CCN(C(=O)c1ccc2nonc2c1)C1CCOCC1 = 102 to 104 °C
• O=C(NC1CCOC(O)C1)c1ccc2nonc2c1 (stereo not shown) = 91 to 92 °C
• CN(C(=O)c1ccc2nonc2c1)[C@H]1CC[C@@H](C#N)CC1 = 222 to 223 °C
• CCN(C(=O)c1ccc2nonc2c1)C1CCCCC1 = 51 to 52 °C
• CN(C(=O)c1ccc2nonc2c1)C1CC=C(F)CC1 (stereo not shown) = 117 to 118 °C
• CN(CC1CCCCC1)C(=O)c1ccc2nonc2c1 = 71 to 72 °C
• O=C(c1ccc2nonc2c1)N(CC(F)(F)F)C1CCOCC1 = 134 to 135 °C
• CN(C(=O)c1ccc2nonc2c1)C1CCCCC1 = 134 to 135 °C

* * *

outcome.measure: melting point

* O=C(NC1CCCOC1)c1ccc2nonc2c1 (stereo not drawn) | 204 to 205 °C
* CN1CCC(N(C)C(=O)c2ccc3nonc3c2)CC1 | > 260 °C
* CN(C(=O)c1ccc2nccnc2c1)C1CCOCC1 | 130 to 131 °C
* CN(C(=O)c1ccc2nonc2c1)C1CCCC1 | 110 to 111 °C
* CN(C(=O)c1ccc2nonc2c1)C1CCCC(F)(F)C1 (stereo not drawn) | 119 to 120 °C
* CN(Cc1ccccc1)C(=O)c1ccc2nonc2c1 | 105 to 106 °C

* * *

outcome.measure: melting point

• CN(C(=O)c1ccc2nonc2c1)C1CCOC(=O)C1 (stereo not shown) [Example 68] = 169 to 171 °C
• CN(C(=O)c1ccc2nonc2c1)C1CCN(C(=O)OC(C)(C)C)CC1 [Example 26] = 98 to 100 °C
• CN(C(=O)c1ccc2nonc2c1)C1CCCCC1(F)F (stereo not shown) [Example 65] = 101 to 102 °C
• CN(C(=O)c1ccc2nonc2c1)C1CCC1 [Example 6] = 51 to 52 °C
• CN(C(=O)c1ccc2nonc2c1)C1CCOC(O)C1 (stereo not shown) [Example 69] = < 90 °C
• O=C(c1ccc2nonc2c1)N(C1CCOCC1)C1CC1 [Example 24] = 108 to 109 °C
• CN(C(=O)c1ccc2nonc2c1)[C@H]1CC[C@](C)(O)CC1 [Example 45] = 175 to 176 °C

The reported measurements were obtained from patent US8642633B2.
